Sequence of the target: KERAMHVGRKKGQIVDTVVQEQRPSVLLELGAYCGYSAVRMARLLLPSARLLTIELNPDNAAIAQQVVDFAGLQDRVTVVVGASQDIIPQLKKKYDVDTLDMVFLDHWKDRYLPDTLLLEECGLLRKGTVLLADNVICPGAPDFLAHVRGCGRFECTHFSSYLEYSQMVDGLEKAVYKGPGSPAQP
pIC50: −log10 of the molar value.
Hi, to clarify the labels: Y covers pIC50 from 5 upward, N covers anything below 5.

Please review the following examples before continuing.
> print(dat)
                                   compound  class.assignment
1  Cc1ccc(Cn2ccc(=O)c(O)c2C)cc1 [Compound 10]                 Y
2  Cc1c(O)c(=O)ccn1Cc1ccccc1 [Compound 2, 1-Benzyl-3-hydroxy-2-methylpyridin-4-one]                 Y

Consider now this further compound.
[in] Assess whether reported pIC50 for Cc1c(O)c(=O)ccn1CCCc1ccccc1 [Compound 4] sits at 5 or higher.
[out] N
